Values from the supplement of paper PMC6607015

Please respond with reported filipin (z-score) for every item in the list.
Tested on: HeLa MZ
Experiment: filipin (cholesterol) integrated intensity within LBPA endosomes, Z-score; higher = more cholesterol in LBPA endosomes
Conditions: compound concentration in added solution (µM; 5 µl added to 20 µl cells): 10; 18 h
Where a name gives a salt, the structure may show the parent alone.
Please respond with just the number, no unit label.

Qu. Kindly state the measured filipin (z-score) obtained for C[C@]12C=CC(=O)C=C1CC[C@@H]1[C@@H]2C(=O)C[C@@]2(C)[C@H]1CC[C@]2(O)C(=O)CO with HeLa MZ.
Ans. -0.412

Qu. Also check CC1(C)S[C@@H]2[C@H](NC(=O)[C@H](N)c3ccccc3)C(=O)N2[C@H]1C(=O)OC1OC(=O)c2ccccc21 (some centres undefined) [Talampicillin hydrochloride]
Ans. -0.35

Qu. Ok, now CO[C@@H]1[C@@H](OC(N)=O)[C@@H](O)[C@H](Oc2ccc3c(O)c(NC(=O)c4ccc(O)c(CC=C(C)C)c4)c(=O)oc3c2C)OC1(C)C [Novobiocin sodium salt]
Ans. -0.462

Qu. Moving on to CC(NCCC(c1ccccc1)c1ccccc1)c1ccccc1 (centres undefined) [Fendiline hydrochloride]
Ans. 2.94

====

Give whole-cell filipin (z-score) for every item shown.
System: A431
Assay: whole-cell filipin (free cholesterol) integrated intensity, Z-score; higher = more cholesterol staining
Settings: compound concentration in added solution (µM; 5 µl added to 20 µl cells): 10; 18 h

Qu. Lab note: need whole-cell filipin (z-score) for COc1ccc([C@@H]2CC(=O)c3c(O)cc(O[C@@H]4O[C@H](CO[C@@H]5O[C@@H](C)[C@H](O)[C@@H](O)[C@H]5O)[C@@H](O)[C@H](O)[C@H]4O)cc3O2)cc1O on A431, anyone have it?
Ans. -0.6

Qu. One more compound: NC(=O)c1cccnc1 [Nicotinamide]
Ans. -0.512

Qu. What about this compound? CCCCCCCCNC(C)C(O)c1ccc(SC(C)C)cc1 (centres undefined)
Ans. 1.67

Qu. Try CCOC(=O)[N-]c1c[n+](N2CCOCC2)no1 next.
Ans. -0.59

====

Test system: A431
Experiment: filipin (cholesterol) integrated intensity within LBPA endosomes, Z-score; higher = more cholesterol in LBPA endosomes
Details: compound concentration in added solution (µM; 5 µl added to 20 µl cells): 10; 18 h
Where a name gives a salt, the structure may show the parent alone.
Can you tell me filipin (z-score) for the items I'm about to list?
Number only, please.

Qu. Observed filipin (z-score) on A431 for C=CCN1CCCC1CNC(=O)c1cc2nn[nH]c2cc1OC (stereo not drawn) [Alizapride HCl] , please.
Ans. -0.538

Qu. Field entry: CN(N=O)C(=O)N[C@@H](C=O)[C@@H](O)[C@H](O)[C@H](O)CO [Streptozotocin]
Ans. -0.474

Qu. // same read-out, input: Clc1ccc(C(Cn2ccnc2)OCc2ccsc2Cl)c(Cl)c1 (stereo not drawn) [Tioconazole]
Ans. -0.053

Qu. Next record, please: OCCN1CCN(CCCN2c3ccccc3Sc3ccc(C(F)(F)F)cc32)CC1 [Fluphenazine dihydrochloride]
Ans. 2.23

Qu. Check COC(=O)C1=C(C)NC(C)=C(C(=O)OCCN(C)Cc2ccccc2)C1c1cccc([N+](=O)[O-])c1 (stereo not drawn) [Nicardipine hydrochloride] too.
Ans. 1.79

Qu. Would you mind doing COc1ccc(NS(=O)(=O)c2ccc(N)cc2)nn1 [Sulfamethoxypyridazine] as well?
Ans. -0.455

Qu. Repeat for the following compound: CNCCC(Oc1ccc(C(F)(F)F)cc1)c1ccccc1 (stereo not drawn) [Fluoxetine hydrochloride]
Ans. 2.19

Qu. What about this compound? CC(=O)N[C@@H](CS)C(=O)O [Acetylcysteine]
Ans. -0.4

Qu. Next compound up: Cc1cc(CC(=O)O)n(C)c1C(=O)c1ccc(Cl)cc1 [Zomepirac sodium salt]
Ans. -0.413

Qu. Try this compound next: CC[N+](C)(CC)CCC[n+]1c(-c2ccccc2)c2cc(N)ccc2c2ccc(N)cc21 [Propidium iodide]
Ans. -0.56

Qu. Let us now turn to c1ccc(C2CN3CCSC3=N2)cc1 (stereo not drawn) [Tetramisole hydrochloride]
Ans. -0.702

Qu. How about CN(C)C(=O)C(CCN1CCC(O)(c2ccc(Cl)cc2)CC1)(c1ccccc1)c1ccccc1 [Loperamide hydrochloride] ?
Ans. 3.45

Qu. What about this compound? CCSc1ccc2c(c1)N(CCCN1CCN(C)CC1)c1ccccc1S2 [Thiethylperazine dimalate]
Ans. 1.25

Qu. What about this compound? CN(C)CCC=C1c2ccccc2C=Cc2ccccc21 [Cyclobenzaprine hydrochloride]
Ans. 2.57

Qu. One more compound: CC1CS(=O)(=O)CCN1/N=C/c1ccc([N+](=O)[O-])o1 (stereo not drawn) [Nifurtimox]
Ans. -0.444

Qu. Entry to check: O=C1C(O)=C(O)C(=O)C(O)=C1O [Tetrahydroxy-1,4-quinone monohydrate]
Ans. -0.404

Qu. Now the same for CN(C(=O)CN(CCO)CC(=O)N(C)C(C)(C)Cc1ccccc1)C(C)(C)Cc1ccccc1 [Oxethazaine]
Ans. 1.53

Qu. Again, but for OCCOCCN1CCN(C(c2ccccc2)c2ccc(Cl)cc2)CC1 (stereo not drawn) [Hydroxyzine dihydrochloride]
Ans. 0.492

Qu. Entry to check: CN1CCC(=C2c3ccccc3CCc3sccc32)CC1 [Pizotifen malate]
Ans. 2.82

Qu. Now consider CC1(C)S[C@@H]2[C@H](NC(=O)[C@H](C(=O)O)c3ccsc3)C(=O)N2[C@H]1C(=O)O [Ticarcillin sodium] .
Ans. -0.403

Qu. Please give the result for CCCCCN(C)CCC(O)(P(=O)(O)O)P(=O)(O)O [Ibandronate sodium] too.
Ans. -0.423

Qu. Next record, please: CN1CCN(C(c2ccccc2)c2ccccc2)CC1 [Cyclizine hydrochloride]
Ans. -0.285

Qu. Param item: CC1(C)S[C@@H]2[C@H](NC(=O)[C@H](NC(=O)N3CCNC3=O)c3ccccc3)C(=O)N2[C@H]1C(=O)O [Azlocillin sodium salt]
Ans. -0.464

Qu. Entry NS(=O)(=O)c1cc2c(cc1Cl)NC(CC1CCCC1)NS2(=O)=O (stereo not drawn) [Cyclopenthiazide] please
Ans. -0.442

Qu. Entry to check: CCOC(=O)N1CCC(=C2c3ccc(Cl)cc3CCc3cccnc32)CC1 [Loratadine]
Ans. 0.439

Qu. Entry CC[C@H]1OC(=O)[C@H](C)[C@@H](O[C@H]2C[C@@](C)(OC)[C@@H](O)[C@H](C)O2)[C@H](C)[C@@H](O[C@@H]2O[C@H](C)C[C@H](N(C)C)[C@H]2O)[C@](C)(O)C[C@@H](C)CN(C)[C@H](C)[C@@H](O)[C@]1(C)O [Azithromycin] please
Ans. 1.25

Qu. Now consider O=C(O)c1cccnc1 [Niacin] and answer again.
Ans. -0.464

Qu. What would you report for CCn1cc(C(=O)O)c(=O)c2ccc(C)nc21 [Nalidixic acid sodium salt] ?
Ans. -0.467

Qu. Next compound up: CC(CN1c2ccccc2Sc2ccccc21)N(C)C (stereo not drawn) [Promethazine hydrochloride]
Ans. 2.23

Qu. COc1cc([C@@H]2c3cc4c(cc3[C@@H](O[C@@H]3O[C@@H]5CO[C@@H](C)O[C@H]5[C@H](O)[C@H]3O)[C@H]3COC(=O)[C@H]23)OCO4)cc(OC)c1O [Etoposide] , same question.
Ans. -0.718

Qu. Do the same for CCN(CC)C(=O)Nc1ccc(OCC(O)CNC(C)(C)C)c(C(C)=O)c1 (stereo not drawn) [Celiprolol HCl] please
Ans. -0.388

Qu. Also need CN/C(=N\CCSCc1nc[nH]c1C)NC#N [Cimetidine] , thanks.
Ans. -0.458

Qu. Next entry: Nc1nc(O)c2ncn(CCC(CO)CO)c2n1 [Penciclovir]
Ans. -0.512

====

Tested on: A431
Assay: filipin (cholesterol) integrated intensity within LBPA endosomes, Z-score; higher = more cholesterol in LBPA endosomes
Settings: compound concentration in added solution (µM; 5 µl added to 20 µl cells): 10; 18 h
Structures can show the parent of a compound that is named as a salt.
Assign filipin (z-score) to each entry below.
Lab note: record the figure alone, no unit after it.

Qu. Fill blank: measured filipin (z-score) of the compound C[C@@H]1CCC[C@H](C)N1NC(=O)c1ccc(Cl)c(S(N)(=O)=O)c1 [Clopamide] is ____.
Ans. -0.503

Qu. Can you check CN1CC2c3ccccc3Oc3ccc(Cl)cc3C2C1 (stereo not given) [Asenapine maleate] next?
Ans. 1.3

Qu. Same read-out for CCCCNc1ccc(C(=O)OCCOCCOCCOCCOCCOCCOCCOCCOCCOC)cc1 [Benzonatate] ?
Ans. -0.427

Qu. Let us now turn to CCCCN(CCCC)CCC(O)c1cc2c(Cl)cc(Cl)cc2c2cc(C(F)(F)F)ccc12 (stereo not given) [Halofantrine hydrochloride]
Ans. 1.04

Qu. Now the compound C[C@@H](c1ncncc1F)[C@](O)(Cn1cncn1)c1ccc(F)cc1F
Ans. -0.605

Qu. Next up: CCCC(=O)Nc1ncnc2c1ncn2[C@@H]1O[C@@H]2COP(=O)(O)O[C@H]2[C@H]1OC(=O)CCC [Bucladesine sodium salt]
Ans. -0.405

Qu. Next: CC[C@H](C)C(=O)O[C@H]1CCC=C2C=C[C@H](C)[C@H](CC[C@@H]3C[C@@H](O)CC(=O)O3)[C@H]21
Ans. -0.746

Qu. Same read-out for CCN(CC)C(=O)c1ccc(O)c(OC)c1 ?
Ans. -0.43

Qu. What do you get for C[N+](C)(CCOc1ccccc1)Cc1ccccc1.O=C([O-])c1cc2ccccc2cc1O [Bephenium hydroxynaphthoate] ?
Ans. -0.456

Qu. Also NC(=O)N/N=C/c1ccc([N+](=O)[O-])o1 , if possible.
Ans. -0.506

Qu. Now the same for Cc1onc(-c2ccccc2)c1C(=O)N[C@@H]1C(=O)N2[C@@H]1SC(C)(C)[C@@H]2C(=O)O [Oxacillin sodium]
Ans. -0.382

Qu. Likewise for CC(=O)O[C@]1(C(C)=O)CC[C@H]2[C@@H]3C=C(C)C4=CC(=O)CC[C@@H]4[C@H]3CC[C@@]21C [Nomegestrol acetate] ?
Ans. 0.654

Qu. Query CC(=O)Oc1ccc(C(c2ccc(OC(C)=O)cc2)c2ccccn2)cc1 next
Ans. -0.421

Qu. Same again, this time with CCOC(=O)c1ccc(N)cc1
Ans. -0.613

Qu. How about N=C(N)NCCN1CCCCCCC1 [Guanethidine sulfate] ?
Ans. -0.596

Qu. What about this compound? CCCCC1C(=O)N(c2ccccc2)N(c2ccc(O)cc2)C1=O (stereo not given)
Ans. -0.41

Qu. // query: CC(=O)[C@H]1CC[C@H]2[C@@H]3C=CC4=CC(=O)CC[C@@]4(C)[C@@H]3CC[C@]12C
Ans. 0.655

Qu. How about OCCN1CCN(CCCN2c3ccccc3C=Cc3ccccc32)CC1 [Opipramol dihydrochloride] ?
Ans. 0.712

Qu. What do you get for CCc1cccc2c3c([nH]c12)C(CC)(CC(=O)O)OCC3 (stereo not given) ?
Ans. -0.553

Qu. Another: CCN(CC)CCOC(=O)c1ccc(N)cc1 [Procaine hydrochloride]
Ans. -0.492

Qu. What do you have for COc1cc(C)nc(-n2nc(C)cc2OC)n1 [Epirizole] ?
Ans. -0.458

Qu. Next up: CCCCC(CC)CN1CN(CC(CC)CCCC)CC(C)(N)C1 (stereo not given)
Ans. 0.351

Qu. Would you kindly repeat that for COc1c(N2C[C@@H]3CCCN[C@@H]3C2)c(F)cc2c(=O)c(C(=O)O)cn(C3CC3)c12 ?
Ans. -0.469

Qu. What about this compound? C#C[C@]1(O)CC[C@H]2[C@@H]3CCC4=Cc5oncc5C[C@]4(C)[C@H]3CC[C@@]21C
Ans. -0.449

Qu. Try this compound next: CNCC[C@@H](Oc1ccccc1C)c1ccccc1 [Tomoxetine hydrochloride]
Ans. -0.072

Qu. Next up: CC1(C)S[C@@H]2[C@H](NC(=O)Cc3ccccc3)C(=O)N2[C@H]1C(=O)O [Benzylpenicillin sodium]
Ans. -0.427

Qu. Item: CCN(CC)CCc1nc(-c2ccccc2)no1 [Oxalamine citrate salt]
Ans. -0.442

Qu. Try this compound too: CN(Cc1cc(Br)cc(Br)c1N)C1CCCCC1 [Bromhexine hydrochloride]
Ans. -0.159

Qu. Now this one: CCCCC[C@H](O)/C=C/[C@@H]1[C@@H](C/C=C\CCCC(=O)O)[C@@H](O)C[C@H]1O
Ans. -0.462

Qu. Item: CS(=O)(=O)OCCCCOS(C)(=O)=O
Ans. -0.535

Qu. Field entry: Cn1cnc2c1c(=O)[nH]c(=O)n2C
Ans. -0.492

Qu. Field entry: CCOC(=O)[C@@](C)(N)Cc1ccc(O)c(O)c1 [Methyldopate hydrochloride]
Ans. -0.327

Qu. Another: CC1=C(C(=O)O)N2C(=O)[C@@H](NC(=O)[C@H](N)c3ccccc3)[C@H]2SC1 [Cephalexin monohydrate]
Ans. -0.499

Qu. Then COc1ccc(-c2cc(=S)ss2)cc1 ?
Ans. -0.447

Qu. And then CC(C)OC(=O)C(C)(C)Oc1ccc(C(=O)c2ccc(Cl)cc2)cc1 [Fenofibrate] , what is it?
Ans. -0.435
